biological target: Nuclear receptor subfamily 1 group I member 2 (Rattus norvegicus) (UniProt Q9R1A7); assay: Rat pregnane X receptor (rPXR) activation by small molecules, qHTS assay (AID 1346983); settings: rPXR luciferase reporter cells, One-Glo luminescence, 24 h; stronger effect = higher value; also: % is scaled to controls: 0 for no effect and ±100 for the full control effect; nearly all actives have a fitted effect of over 20% in size
Sequence (Q9R1A7 whole entry, looked up): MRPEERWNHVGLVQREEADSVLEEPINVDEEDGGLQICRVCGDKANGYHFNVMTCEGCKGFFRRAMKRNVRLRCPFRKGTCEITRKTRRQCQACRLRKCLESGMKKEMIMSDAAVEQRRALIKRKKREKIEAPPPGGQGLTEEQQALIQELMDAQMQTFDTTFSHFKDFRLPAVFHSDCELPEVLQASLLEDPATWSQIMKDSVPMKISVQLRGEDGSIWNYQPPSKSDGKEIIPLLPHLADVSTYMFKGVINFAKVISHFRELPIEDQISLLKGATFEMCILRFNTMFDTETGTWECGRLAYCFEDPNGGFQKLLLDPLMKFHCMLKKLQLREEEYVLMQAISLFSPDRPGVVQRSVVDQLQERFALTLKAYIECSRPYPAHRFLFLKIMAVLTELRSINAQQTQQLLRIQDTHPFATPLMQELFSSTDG
Results filed as inconclusive are left out. Calls of active or inactive are those of the source. Calls follow the shape of the dose curve; as a rule, active = well fitted activation curve with a large enough effect in the repeat runs; inconclusive = weak or mixed curves; inactive = no such curve, though single readings can be large or run the other way.
measured_endpoint: max activation

- compound: "CC(C)(C)C(=O)OCOP(=O)(COCCn1cnc2c(N)ncnc21)OCOC(=O)C(C)(C)C"
  reported: "-2.44% (inactive)"
- compound: "CC(=O)N(O)CCCCCNC(=O)CCC(=O)N(O)CCCCCNC(=O)CCC(=O)N(O)CCCCCN"
  reported: "-2.68% (inactive)"
- compound: "CC(C)NCC(O)c1cc(O)cc(O)c1 (stereo unspecified)"
  reported: "-6.91% (inactive)"
- compound: "CCCCOc1ccc(CC(=O)NO)cc1"
  reported: "-0.916% (inactive)"
- compound: "CC1(C)[C@H]2CC[C@]1(C)[C@H](O)C2"
  reported: "-0.529% (inactive)"
- compound: "O=C(O)COC(=O)Cc1ccccc1Nc1c(Cl)cccc1Cl"
  reported: "-0.166% (inactive)"
- compound: "CCOc1nc2cccc(C(=O)O)c2n1Cc1ccc(-c2ccccc2-c2nn[nH]n2)cc1"
  reported: "-0.587% (inactive)"
- compound: "CCN(CC)CCOC(=O)C1(c2ccccc2)CCCC1"
  reported: "1.06% (inactive)"
- compound: "CCN(CC)C(C)CN1c2ccccc2Sc2ccccc21 (stereo unspecified)"
  reported: "-0.328% (inactive)"
- compound: "O=C(O)[C@@H]1[C@H]2C[C@H]3c4[nH]c5ccccc5c4CCN3C[C@@H]2CC[C@@H]1O"
  reported: "-0.311% (inactive)"
- compound: "CC(Cc1cccc(C(F)(F)F)c1)NCCOC(=O)c1ccccc1 (stereo unspecified)"
  reported: "-0.287% (inactive)"

Provenance of the data: PubChem BioAssay (Tox21)
